# Tested system: serotonin transporter (Rattus norvegicus, UniProt P31652)
# Construct: displace ^3H-paroxetine from male rat cortical membranes; from tissue; host or cells: male rat cortical membranes
# Sequence (P31652 whole entry): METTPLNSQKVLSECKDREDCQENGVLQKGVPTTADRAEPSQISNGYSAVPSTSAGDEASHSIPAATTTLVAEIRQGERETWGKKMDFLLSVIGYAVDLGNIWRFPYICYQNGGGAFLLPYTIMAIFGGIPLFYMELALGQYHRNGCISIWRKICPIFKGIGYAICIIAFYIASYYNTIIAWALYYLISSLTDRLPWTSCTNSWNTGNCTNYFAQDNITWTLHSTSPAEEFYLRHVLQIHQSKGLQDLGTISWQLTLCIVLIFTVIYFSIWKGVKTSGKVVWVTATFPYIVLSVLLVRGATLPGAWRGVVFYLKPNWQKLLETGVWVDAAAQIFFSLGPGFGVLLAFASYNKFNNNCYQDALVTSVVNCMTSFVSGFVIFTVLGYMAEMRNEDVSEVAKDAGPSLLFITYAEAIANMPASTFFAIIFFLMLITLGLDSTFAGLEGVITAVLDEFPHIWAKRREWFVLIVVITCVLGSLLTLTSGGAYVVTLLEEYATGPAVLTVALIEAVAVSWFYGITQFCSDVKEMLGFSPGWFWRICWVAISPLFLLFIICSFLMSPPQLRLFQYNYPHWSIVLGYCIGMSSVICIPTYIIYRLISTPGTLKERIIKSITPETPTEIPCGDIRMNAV
# Test name: 5-HT transporter affinity: displacement of 3H-paroxetine from male rat cortical membranes
# Format: binding
# Cond: displacement of 3H-paroxetine; male rat cortical membranes; read-out: 5-HT Transporter Affinity Ki
Please assign -1 whenever Ki is at or above 70 nM, and 1 whenever it is below.

Q: Answer whether the molecule NC(=O)c1ccc(F)c2c1CC(N(CC1CCc3[nH]c4ccc(F)cc4c3C1)C1CCC1)CO2 (single isomer, unassigned; (-)) [Compound 174d] has Ki strictly less than 70 nM
Ans: -1

Q: Hi there! Is Ki for CCCN(C(C)CCCc1c[nH]c2ccc(F)cc12)C1COc2c(F)ccc(C(N)=O)c2C1 (single isomer, unassigned; (+)) [Compound 14a] below 70 nM, do you know?
Ans: 1

Q: Take the molecule CCCN(C(C)CCc1c[nH]c2ccc(C#N)cc12)C1COc2c(F)ccc(C(N)=O)c2C1 (single isomer, unassigned) [Compound 13a] and say whether its Ki is less than 70 nM.
Ans: 1

Q: # check: Ki < 70 nM for CC(CCc1c[nH]c2c(F)cc(F)cc12)N(CC1CC1)C1COc2c(F)ccc(C(N)=O)c2C1 (single isomer, unassigned) [Compound 154c]
Ans: 1

Q: Does the reported Ki of N#Cc1ccc2[nH]cc(CCCN(C3CCC3)[C@@H]3COc4c(F)ccc(C(N)=O)c4C3)c2c1 [Compound 97a] stay below 70 nM?
Ans: 1

Q: For this molecule, is Ki lower than 70 nM? C[C@H](CCN(C1CCC1)[C@H]1COc2c(F)ccc(C(N)=O)c2C1)c1c[nH]c2ccc(F)cc12 [Compound 152a]
Ans: -1

---

# Tested system: 5-HT1A receptor (Homo sapiens)
# Sequence (P08908 1-422): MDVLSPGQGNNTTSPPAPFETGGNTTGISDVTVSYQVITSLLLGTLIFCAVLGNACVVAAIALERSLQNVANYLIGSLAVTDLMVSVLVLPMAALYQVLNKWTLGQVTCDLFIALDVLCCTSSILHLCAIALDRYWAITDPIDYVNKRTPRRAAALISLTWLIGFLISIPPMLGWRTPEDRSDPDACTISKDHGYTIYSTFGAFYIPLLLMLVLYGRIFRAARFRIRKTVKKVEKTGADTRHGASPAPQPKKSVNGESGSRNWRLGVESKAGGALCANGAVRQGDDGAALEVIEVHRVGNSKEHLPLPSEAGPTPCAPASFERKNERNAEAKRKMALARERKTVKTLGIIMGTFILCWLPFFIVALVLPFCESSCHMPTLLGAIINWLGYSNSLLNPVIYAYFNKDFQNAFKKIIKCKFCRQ
# Test name: cAMP accumulation assay, 5-HT1A function
# Type: cell-based
# Cond: cells marked IC50 (antagonist); read-out: 5-HT1A Function cAMP IC50
Quantity measured: pIC50
Expect pIC50 as a plain number equal to -log10 of the molar concentration.

Q: Fill in the blank: the reported pIC50 of CN(C)C(=O)c1ccc(F)c2c1CC(N(CCCc1c[nH]c3ccc(F)cc13)C1CCC1)CO2 (stereo not drawn) [Compound 73] is ____.
Ans: 6.81

Q: GET /values?readout=pIC50&item= COc1cccc2c(CCCCNC3COc4c(F)ccc(C(N)=O)c4C3)coc12 (stereo not drawn) [Compound 167]
Ans: 6.86

Q: Need pIC50 of CCCN(C(C)CCc1c[nH]c2ccc(C#N)cc12)C1COc2c(F)ccc(C(N)=O)c2C1 (single isomer, unassigned) [Compound 13c] , thanks.
Ans: 6.50

Q: Which pIC50 is reported for this compound? COc1cccc2c(CCCN(C3CCC3)C3COc4c(F)ccc(C(N)=O)c4C3)c[nH]c12 (stereo not drawn) [Compound 102]
Ans: 6.57

Q: GET /values?readout=pIC50&item= CNC(=O)c1ccc(F)c2c1CC(N(CCCc1c[nH]c3ccc(F)cc13)C1CCC1)CO2 (stereo not drawn) [Compound 59]
Ans: 6.78

Q: Give its pIC50 value. Item: COC(=O)c1ccc(F)c2c1CC(N(CCCc1c[nH]c3ccc(F)cc13)C1CCC1)CO2 (stereo not drawn) [Compound 11]
Ans: 6.39

Q: I'd like to know its pIC50. The compound in question is CNC(=O)c1ccc(F)c2c1CC(N(CCc1c[nH]c3ccc(F)cc13)CC1CC1)CO2 (stereo not drawn) [Compound 86]
Ans: 6.64

Q: Bench note: what pIC50 did CCN(C(C)CCc1c[nH]c2ccc(F)cc12)C1COc2c(F)ccc(C(N)=O)c2C1 (single isomer, unassigned; (-)) [Compound 16a] show?
Ans: 6.73

Q: Need pIC50 of COc1cccc2c(CCCCN(C3CCC3)C3COc4c(F)ccc(C(N)=O)c4C3)coc12 (stereo not drawn) [Compound 171] , thanks.
Ans: 6.96

---

# Tested system: cloned human 5-HT1A receptors (Homo sapiens)
# Construct: expressed in transfected cells
# Sequence (P08908 1-422): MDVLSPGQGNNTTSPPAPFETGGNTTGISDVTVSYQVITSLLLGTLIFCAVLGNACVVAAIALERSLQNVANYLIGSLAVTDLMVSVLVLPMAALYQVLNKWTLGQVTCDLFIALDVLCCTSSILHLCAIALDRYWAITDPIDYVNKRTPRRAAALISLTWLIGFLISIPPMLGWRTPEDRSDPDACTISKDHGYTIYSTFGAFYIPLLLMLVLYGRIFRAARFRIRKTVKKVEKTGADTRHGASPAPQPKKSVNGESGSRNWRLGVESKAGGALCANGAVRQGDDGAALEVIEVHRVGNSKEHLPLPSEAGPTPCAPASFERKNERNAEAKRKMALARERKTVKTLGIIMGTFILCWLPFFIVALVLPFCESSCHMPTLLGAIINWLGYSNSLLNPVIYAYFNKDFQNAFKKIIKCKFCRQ
# Test name: 35S-GTPγS binding assay, 5-HT1A function
# Type: biochemical
# Cond: antagonist potency, reversal of 8-OH-DPAT; read-out: 5-HT1A Function GTPγS IC50
Quantity measured: pIC50
Interpret pIC50 as the negative base-10 log of the concentration measured in mol/L.

Q: # query: pIC50 of entry CCCN(C(C)CCc1c[nH]c2ccc(C#N)cc12)C1COc2c(F)ccc(C(N)=O)c2C1 (single isomer, unassigned) [Compound 13a]
Ans: 6.27

Q: Given the compound O=C(O)c1ccc(F)c2c1CC(N(CCCc1c[nH]c3ccc(F)cc13)C1CCC1)CO2 (stereo not drawn) , what is its reported pIC50?
Ans: 5.30

Q: So what does the record say about pIC50 for C[C@H](CCN(C1CCC1)[C@@H]1COc2c(F)ccc(C(N)=O)c2C1)c1c[nH]c2ccc(F)cc12 [Compound 152b] ?
Ans: 5.30

Q: Which pIC50 reading was recorded for the compound C[C@H](CCN(C1CCC1)[C@H]1COc2c(F)ccc(C(N)=O)c2C1)c1c[nH]c2ccc(F)cc12 [Compound 152a] ?
Ans: 5.66

Q: Entry under review: CNC(=O)c1ccc(F)c2c1CC(N(CCc1c[nH]c3ccc(F)cc13)CC1CC1)CO2 (stereo not drawn) . Reported pIC50?
Ans: 6.11

Q: What pIC50 value was documented for this compound, NC(=O)c1ccc(F)c2c1CC(N(CCCCc1c[nH]c3ccc(F)cc13)C1CCC1)CO2 (stereo not drawn) ?
Ans: 6.45

Q: Look at this compound and give its reported pIC50. CCCN(CCCc1c[nH]c2ccc(F)cc12)C1COc2c(F)ccc(C(N)=O)c2C1 (single isomer, unassigned; (-))
Ans: 6.39

Q: Report pIC50 for NC(=O)c1ccc(Cl)c2c1CC(N(CCCc1c[nH]c3ccc(F)cc13)C1CCC1)CO2 (stereo not drawn) please.
Ans: 5.78

Q: Entry CCN(CC1CCc2[nH]c3ccc(F)cc3c2C1)[C@H]1COc2c(F)ccc(C(N)=O)c2C1 (single isomer, unassigned; (+)) [Compound 176b] has what pIC50?
Ans: 6.08

Q: GET /values?readout=pIC50&item= CCCN(CCCc1c[nH]c2ccc(Cl)cc12)C1COc2c(F)ccc(C(N)=O)c2C1 (stereo not drawn)
Ans: 6.07

Q: Tell me the measured pIC50 of NC(=O)c1ccc(F)c2c1CC(N(CCCc1c[nH]c3cc(F)ccc13)C1CCC1)CO2 (stereo not drawn) , please.
Ans: 6.29

Q: Endpoint output: pIC50 of COC(=O)c1ccc(F)c2c1C[C@@H](N(CCCCc1c[nH]c3ccc(F)cc13)C1CCC1)CO2 [Compound 58b] . Value?
Ans: 6.20

Q: Which pIC50 reading was recorded for the compound CCCN(CCCCn1ccc2cccc(F)c21)C1COc2c(F)ccc(C(N)=O)c2C1 (stereo not drawn) ?
Ans: 5.44

Q: pIC50 lookup needed for CCCCNC(=O)c1ccc(F)c2c1CC(N(CCCc1c[nH]c3ccc(F)cc13)C1CCC1)CO2 (stereo not drawn) , thanks.
Ans: 5.72

Q: Looking for the measured pIC50 of COc1cccc2c1CC(N(CCCc1c[nH]c3ccc(F)cc13)C(C)C)CO2 (stereo not drawn) , can you help?
Ans: 5.42
